Biological target: Wild type full length LIGHT on HEK293FF cells (alanine scanning control) (UniProt O43557)
Experiment: flow cytometry, HEK293FF, mAb at EC50
measurement-label: % of WT binding (%)
Please state the figure in %; there is no need to write the unit.

As a guide, the following entries are already answered.
binder="2B11 chimeric IgG4 mAb (antibody, V domains shown) VH: EVQLVESGAELVRPGVSVKISCKGSGYTFTDYAIHWVKQSHAKSLEWIGVISTYYGDASYNQKFKGKATMTVDKSSSTAYMELARLTSEDSAIYYCARSRGEYGNYDAMDYWGQGTSVTVSS VL: DIVLTQSPASLAVSLGQRATISCRASESVDSYGNSFMHWYQQKPGQPPKLLIYRASNLESGIPARFSGSGSRTDFTLTINPVEADDVATYYCQQSNEDPYTFGGGTKLEIK" measurement_label="% of WT binding" endpoint_result=100
binder="3B04 chimeric IgG4 mAb (antibody, V domains shown) VH: QVQLQQPGAELVRPGASVTLSCKASGYTFTDYEMHWVKQTPVHGLEWIGEIDPETGDTAYSQKFKGKATLTADKSSSTAYMEFRSLTSEDSAVYYCSRETDYFFDYWGQGTTLTVSS VL: DIQMTQTPASLSASVGETVTITCGASENIYGALNWYQRKQGKSPQLLIYGATNLADGMSSRFSGSGSGRQYSLKISSLHPDDFATYYCQNVLTTPWTFGGGTKLEIK" measurement_label="% of WT binding" endpoint_result=100

Alright, here's another binder for you.
The reported value for 3A07 chimeric IgG4 mAb (antibody, V domains shown) VH: QVQLQQSGAELVRPGAPVTLSCKASDYTFTDSEIHWVKQTPVHGLEWIGEIDPETGGTAYNQKFKGKATLTADKSSSTAYMELRSLTSEDSAVYYCSRETDYFFDYWGQGTTLTVSS VL: ENVLTQSPAIMSASPGEKVTMTCSASSSVSYMYWYQQRPGSSPRLLIYDTSNLASGVPVRFSGSGSGTSYSLTISRMEAEDAATYYCQQWSSYPLTFGSGTKLEIK in terms of % of WT binding is 100
